Target: NDM-1 (Klebsiella pneumoniae, UniProt C7C422)
Sequence (C7C422 whole entry, looked up, species assumed): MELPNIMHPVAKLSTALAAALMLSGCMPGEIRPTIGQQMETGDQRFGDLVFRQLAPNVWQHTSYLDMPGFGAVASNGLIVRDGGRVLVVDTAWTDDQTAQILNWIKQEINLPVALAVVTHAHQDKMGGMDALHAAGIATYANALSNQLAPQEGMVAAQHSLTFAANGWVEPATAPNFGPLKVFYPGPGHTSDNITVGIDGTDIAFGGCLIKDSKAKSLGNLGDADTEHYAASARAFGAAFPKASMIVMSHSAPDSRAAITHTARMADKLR
Assay: biochemical
Type: biochemical
Conditions: NDM-1 enzyme, CCF2-FA substrate; read-out: NDM-1 IC50
MEASUREMENT KIND: IC50 (nM)

- COMPOUND: "CC1(O)CCN(c2ccc(C(F)(F)F)c(S(N)(=O)=O)c2-c2nnn[nH]2)CC1 [Example 653]"
  STUDY TARGET: "NDM-1 (Klebsiella pneumoniae, UniProt C7C422)"
  QUANTITATIVE READOUT: 2.82
- COMPOUND: "NS(=O)(=O)c1c(C(F)(F)F)ccc(N2CCCC(CCO)C2)c1-c1nnn[nH]1 (stereo not shown) [Example 660]"
  STUDY TARGET: "NDM-1 (Klebsiella pneumoniae, UniProt C7C422)"
  QUANTITATIVE READOUT: 4.7
- COMPOUND: "CNCCN(C)c1ccc(-c2cccc(S(N)(=O)=O)c2-c2nnn[nH]2)cn1 [Example 637]"
  STUDY TARGET: "NDM-1 (Klebsiella pneumoniae, UniProt C7C422)"
  QUANTITATIVE READOUT: 52
- COMPOUND: "NS(=O)(=O)c1cccc(-c2cnc3cnccn23)c1-c1nnn[nH]1 [Example 651]"
  STUDY TARGET: "NDM-1 (Klebsiella pneumoniae, UniProt C7C422)"
  QUANTITATIVE READOUT: 9.85

---

Biological target: IMP-1 (Serratia marcescens)
Sequence (P52699 whole entry, looked up): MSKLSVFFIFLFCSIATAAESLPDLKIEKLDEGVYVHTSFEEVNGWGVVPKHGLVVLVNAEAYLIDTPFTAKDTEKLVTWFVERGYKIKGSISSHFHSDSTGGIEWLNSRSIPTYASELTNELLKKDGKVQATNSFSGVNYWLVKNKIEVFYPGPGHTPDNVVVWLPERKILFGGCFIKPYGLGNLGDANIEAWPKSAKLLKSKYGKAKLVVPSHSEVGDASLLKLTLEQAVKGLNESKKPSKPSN
Experiment: biochemical
Format: biochemical
Conditions: IMP-1 enzyme, CCF2-FA substrate; read-out: IMP-1 IC50
In this section we review reported IC50 values for a set of compounds.
MEASUREMENT KIND: IC50 (nM)

- COMPOUND: "NCCc1cccc(-c2ccc(C(F)(F)F)c(S(N)(=O)=O)c2-c2nnn[nH]2)c1 [Example 734]"
  MEASUREMENT KIND: "IC50"
  QUANTITATIVE READOUT: 34.4
- COMPOUND: "NS(=O)(=O)c1c(C(F)(F)F)ccc(N2CCC[C@H](O)C2)c1-c1nnn[nH]1 [Example 657]"
  MEASUREMENT KIND: "IC50"
  QUANTITATIVE READOUT: 10.2
- COMPOUND: "NS(=O)(=O)c1cccc(-c2ccc(N3CCC3CO)nc2)c1-c1nnn[nH]1 (stereo in doubt) [Example 636]"
  MEASUREMENT KIND: "IC50"
  QUANTITATIVE READOUT: 37.2
- COMPOUND: "NCCCCCNc1nc2c(-c3cccc(S(N)(=O)=O)c3-c3nnn[nH]3)cccc2s1 [Example 644]"
  MEASUREMENT KIND: "IC50"
  QUANTITATIVE READOUT: 32.4
- COMPOUND: "NS(=O)(=O)c1c(C(F)(F)F)ccc([C@H]2CC[C@H](NC3CCNC3)CC2)c1-c1nnn[nH]1 (some centres unmarked) [Example 696]"
  MEASUREMENT KIND: "IC50"
  QUANTITATIVE READOUT: 5.26
- COMPOUND: "NC(=O)C1CCN(c2ccc(C(F)(F)F)c(S(N)(=O)=O)c2-c2nnn[nH]2)CC1 [Example 656]"
  MEASUREMENT KIND: "IC50"
  QUANTITATIVE READOUT: 2.84
- COMPOUND: "NS(=O)(=O)c1c(C(F)(F)F)ccc(-c2cnc3[nH]ccc3c2)c1-c1nnn[nH]1 [Example 708]"
  MEASUREMENT KIND: "IC50"
  QUANTITATIVE READOUT: 1.6
- COMPOUND: "NS(=O)(=O)c1c(C(F)(F)F)ccc([C@H]2CC[C@H](NC3CCNCC3)CC2)c1-c1nnn[nH]1 [Example 698]"
  MEASUREMENT KIND: "IC50"
  QUANTITATIVE READOUT: 29.6
